# ASSAY NOTES: Protein binding in Beagle dog plasma assessed as bound fraction at 200 to 1000 ng/ml incubated for 20 hrs in presence of AEBSF by LC-MS/MS analysis
# Type: ADME, cell-free, Canis lupus familiaris
# CONDITIONS USED: dose 200-1000 ng/ml, read-out: PPB
Where a SMILES comes first, the peptide text is derived from it. [ ]: non-standard residue; d: D form. ξ: configuration not given here. ξDip = NC(C(=O)O)C(c1ccccc1)c1ccccc1
PARAMETER: fraction unbound at 20 h

{"MOLECULE": "NCCCC[C@H](NC(=O)C(NC(=O)[C@H](Cc1c[nH]c2ccccc12)NC(=O)[C@H](CCCCN)NC(=O)[C@H](CCCCN)NC(=O)[C@H](Cc1c[nH]c2ccccc12)NC(=O)[C@H](Cc1c[nH]c2ccccc12)NC(=O)[C@H](CCCCN)NC(=O)[C@@H](N)CCCCN)C(c1ccccc1)c1ccccc1)C(N)=O (stereo partly specified) (H-KKWWKKW[ξDip]K-NH2)", "MEAS VALUE": "> 0.08"}

---

# System: U-937
# ASSAY NOTES: Cytotoxicity against human U-937 cells assessed as inhibition of cell proliferation incubated for 4 hrs by MTS assay
# Assay type: functional, cell-based
# CONDITIONS USED: U-937, 4 h
Where a SMILES comes first, the peptide text is derived from it. [ ]: non-standard residue; d: D form. ξ: configuration not given here. Bip = N[C@@H](Cc1ccc(-c2ccccc2)cc1)C(=O)O; ξBip = NC(Cc1ccc(-c2ccccc2)cc1)C(=O)O; ξDip = NC(C(=O)O)C(c1ccccc1)c1ccccc1
IC50 values by entry

{"MOLECULE": "NCCCC[C@H](NC(=O)[C@H](Cc1c[nH]c2ccccc12)NC(=O)[C@H](Cc1c[nH]c2ccccc12)NC(=O)[C@H](CCCCN)NC(=O)[C@H](CCCCN)NC(=O)[C@H](Cc1c[nH]c2ccccc12)NC(=O)[C@H](Cc1ccc(-c2ccccc2)cc1)NC(=O)[C@H](CCCCN)NC(=O)[C@@H](N)CCCCN)C(N)=O (H-KK[Bip]WKKWWK-NH2)", "UNIT ABBREVIATION": "nM", "IC50": 2700}
{"MOLECULE": "NCCCC[C@H](NC(=O)C(NC(=O)[C@H](Cc1c[nH]c2ccccc12)NC(=O)[C@H](CCCCN)NC(=O)[C@H](CCCCN)NC(=O)[C@H](Cc1c[nH]c2ccccc12)NC(=O)[C@H](Cc1c[nH]c2ccccc12)NC(=O)[C@H](CCCCN)NC(=O)[C@@H](N)CCCCN)C(c1ccccc1)c1ccccc1)C(N)=O (stereo not given in full) (H-KKWWKKW[ξDip]K-NH2)", "UNIT ABBREVIATION": "nM", "IC50": 1200}
{"MOLECULE": "N=C(N)NCCC[C@H](NC(=O)[C@H](Cc1c[nH]c2ccccc12)NC(=O)[C@H](Cc1c[nH]c2ccccc12)NC(=O)[C@H](CCCNC(=N)N)NC(=O)[C@H](CCCNC(=N)N)NC(=O)C(NC(=O)[C@H](Cc1c[nH]c2ccccc12)NC(=O)[C@H](CCCNC(=N)N)NC(=O)[C@@H](N)CCCNC(=N)N)C(c1ccccc1)c1ccccc1)C(N)=O (stereo not given in full) (H-RRW[ξDip]RRWWR-NH2)", "UNIT ABBREVIATION": "nM", "IC50": 2600}
{"MOLECULE": "NCCCC[C@H](NC(=O)[C@H](Cc1c[nH]c2ccccc12)NC(=O)[C@H](Cc1c[nH]c2ccccc12)NC(=O)[C@H](CCCCN)NC(=O)[C@H](CCCCN)NC(=O)[C@H](Cc1c[nH]c2ccccc12)NC(=O)C(Cc1ccc(-c2ccccc2)cc1)NC(=O)[C@H](CCCCN)NC(=O)[C@@H](N)CCCCN)C(N)=O (stereo not given in full) (H-KK[ξBip]WKKWWK-NH2)", "UNIT ABBREVIATION": "nM", "IC50": 3800}
{"MOLECULE": "NCCCC[C@H](NC(=O)[C@H](Cc1c[nH]c2ccccc12)NC(=O)[C@H](CCCCN)NC(=O)[C@H](CCCCN)NC(=O)C(NC(=O)[C@H](Cc1c[nH]c2ccccc12)NC(=O)[C@H](CCCCN)NC(=O)[C@H](CCCCN)NC(=O)[C@@H](N)Cc1c[nH]c2ccccc12)C(c1ccccc1)c1ccccc1)C(N)=O (stereo not given in full) (H-WKKW[ξDip]KKWK-NH2)", "UNIT ABBREVIATION": "nM", "IC50": 5300}
